measuredTarget: ZFP91 (UniProt Q96JP5)
Sequence (Q96JP5 whole entry, looked up): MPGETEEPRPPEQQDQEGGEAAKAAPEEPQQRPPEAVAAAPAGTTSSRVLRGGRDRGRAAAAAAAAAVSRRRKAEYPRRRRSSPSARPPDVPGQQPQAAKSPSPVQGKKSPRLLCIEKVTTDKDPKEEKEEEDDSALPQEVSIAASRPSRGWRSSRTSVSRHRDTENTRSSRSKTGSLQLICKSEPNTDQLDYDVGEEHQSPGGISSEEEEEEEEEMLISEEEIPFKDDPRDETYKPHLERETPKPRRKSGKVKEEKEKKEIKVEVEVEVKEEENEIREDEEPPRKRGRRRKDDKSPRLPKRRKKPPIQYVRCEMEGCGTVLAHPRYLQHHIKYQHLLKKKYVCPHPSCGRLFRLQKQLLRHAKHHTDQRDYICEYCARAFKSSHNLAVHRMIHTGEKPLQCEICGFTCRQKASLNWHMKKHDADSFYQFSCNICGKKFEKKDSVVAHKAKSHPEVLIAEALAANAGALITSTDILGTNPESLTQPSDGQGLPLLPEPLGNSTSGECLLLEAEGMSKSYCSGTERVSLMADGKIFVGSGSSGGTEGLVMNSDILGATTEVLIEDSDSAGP
assaySummary: log2 fold change, soluble protein after heating vs DMSO (PISA); higher = thermal stabilisation; K562 cells, 10 uM, 30 min; active = over 0.2 and 3.5 SD of the protein, either way, in both replicates (recomputed)
About 7,900 targets were measured; listed, in parts, are those with a hit and a random draw of the rest. About 0.6% of all pairs of compound and target were hits.
Threshold rule: log2 fold change greater than or equal to 0.02 is Satisfied; below that, Not satisfied.

Given C[C@H](Nc1ncnc2nc[nH]c12)c1cc2cccc(Cl)c2c(=O)n1-c1ccccc1 [duvelisib] , state whether its log2 fold change is at least 0.02. Not satisfied

Given O=C(CCCCCCC(=O)Nc1ccccc1)NO [vorinostat] , state whether its log2 fold change is at least 0.02. Not satisfied

Given Cn1c2cc(S(C)=O)sc2c2cnn(Cc3cccc(N)c3)c(=O)c21 (stereo not drawn) , state whether its log2 fold change is at least 0.02. Satisfied

Given Cc1ccc(C(=O)N(CCCN)[C@@H](c2nc3cc(Cl)ccc3c(=O)n2Cc2ccccc2)C(C)C)cc1 [ispinesib] , state whether its log2 fold change is at least 0.02. Not satisfied

Given C[C@@H](Oc1cc(-c2cnn(C3CCNCC3)c2)cnc1N)c1c(Cl)ccc(F)c1Cl [crizotinib] , state whether its log2 fold change is at least 0.02. Not satisfied

====

measuredTarget: ZC3HC1 (UniProt Q86WB0)
Sequence (Q86WB0 whole entry, looked up): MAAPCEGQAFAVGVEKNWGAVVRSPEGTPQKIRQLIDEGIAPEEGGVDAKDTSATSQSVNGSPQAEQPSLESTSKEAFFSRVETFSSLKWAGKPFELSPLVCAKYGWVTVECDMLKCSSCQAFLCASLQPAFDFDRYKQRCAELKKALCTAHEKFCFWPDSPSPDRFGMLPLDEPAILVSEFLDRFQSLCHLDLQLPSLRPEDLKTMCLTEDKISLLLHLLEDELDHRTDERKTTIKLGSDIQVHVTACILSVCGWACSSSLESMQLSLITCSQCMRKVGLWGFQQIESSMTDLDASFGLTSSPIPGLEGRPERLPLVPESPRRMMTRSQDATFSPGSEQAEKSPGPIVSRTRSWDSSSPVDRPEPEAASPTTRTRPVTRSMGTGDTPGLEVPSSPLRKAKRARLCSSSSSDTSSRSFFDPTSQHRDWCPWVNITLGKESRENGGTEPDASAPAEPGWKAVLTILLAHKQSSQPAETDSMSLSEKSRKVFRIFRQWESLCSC
assaySummary: log2 fold change, soluble protein after heating vs DMSO (PISA); higher = thermal stabilisation; K562 cells, 10 uM, 30 min; active = over 0.2 and 3.5 SD of the protein, either way, in both replicates (recomputed)
About 7,900 targets were measured; listed, in parts, are those with a hit and a random draw of the rest. About 0.6% of all pairs of compound and target were hits.
attributeMeasured: log2 fold change
Answer with a number only.

Suppose we examine the compound COC(=O)[C@H](CCSC)NC(=O)c1ccc(NC[C@@H](N)CS)cc1-c1ccccc1 ; what log2 fold change value has been reported? -0.093

Suppose we examine the compound Cc1ccc(NC(=O)c2ccc(CN3CC[C@H](N(C)C)C3)c(C(F)(F)F)c2)cc1Nc1nccc(-c2cncnc2)n1 ; what log2 fold change value has been reported? 0.018

Suppose we examine the compound FC(F)(F)c1ccc(/C=C/c2nc(COc3ccc(CCCCn4ccnn4)cc3)co2)cc1 ; what log2 fold change value has been reported? -0.049

Suppose we examine the compound CCCc1cc(C)[nH]c(=O)c1CNC(=O)c1cc(-c2ccnc(N3CCN(C)CC3)c2)cc2c1cnn2C(C)C ; what log2 fold change value has been reported? 0.029

Suppose we examine the compound Oc1cc(-c2nc(-c3ccccc3)[nH]c2-c2ccncc2)ccc1Cl ; what log2 fold change value has been reported? 0.024

Suppose we examine the compound COc1ccc(Cn2ccc3ccc(C(=O)NO)cc32)cc1 ; what log2 fold change value has been reported? 0.13

Suppose we examine the compound Cn1cc(-c2ccc3c(c2)CCN3C(=O)Cc2cccc(C(F)(F)F)c2)c2c(N)ncnc21 ; what log2 fold change value has been reported? 0.014

Suppose we examine the compound Cc1nc(Nc2n[nH]c3c2CN(C(=O)N[C@H](CN(C)C)c2ccccc2)C3(C)C)c2sccc2n1 ; what log2 fold change value has been reported? -0.103

Suppose we examine the compound CC(C)(C)Cn1c(N)nc2ccc(-c3[nH]c(C(C)(C)C)nc3-c3ccc(F)cc3)nc21 ; what log2 fold change value has been reported? 0.035

Suppose we examine the compound COc1cccc2cc(-c3nc([C@H]4CC[C@H](C(=O)O)CC4)n4ncnc(N)c34)[nH]c12 ; what log2 fold change value has been reported? 0.032
